- System: Fusarium verticillioides
- protocol_summary: Antifungal activity, agar well diffusion method
- Format: cell-based
- test_context: Fusarium verticillioides; 0.125 mg/mL; 0 = absence of antifungal activity; read-out: Diameter of inhibition zone
result_type: zone of inhibition at 125 µg/mL (mm)
Give bare numbers, in mm.

Cn1cc(C(=O)N[C@@H]2[C@H]3C[C@]2(c2cc(F)c(F)c(F)c2)CO3)c(C(F)F)n1 (relative stereo)
35

The following compounds each have a reported value; give each one's zone of inhibition at 125 µg/mL.
1. O=C(N[C@@H]1[C@H]2C[C@]1(c1ccc(Cl)cc1)CO2)c1cccnc1Cl (relative stereo)
2. Cn1cc(C(=O)N[C@@H]2[C@@H]3CC[C@@]2(c2cc(F)c(F)c(F)c2)C3)c(C(F)F)n1 (relative stereo)
3. O=C(N[C@@H]1[C@@H]2CC[C@@]1(c1ccc(Cl)cc1)C2)c1cccnc1Cl (relative stereo)

Solution:
1: 10; 2: 48; 3: 36

###

- protocol_summary: physchem
- Type: physicochemical
- test_context: pH 7.4, LogD, pH 7.4, incubation 2
result_type: logD at 1 h
Numbers only.

Some solved cases for reference:
Cn1cc(C(=O)N[C@@H]2[C@H]3C[C@]2(c2cc(F)c(F)c(F)c2)CO3)c(C(F)F)n1 (relative stereo)
2.79
O=C(O)C1C2CC1(C(=O)Nc1ccc(S(=O)(=O)Nc3nccs3)cc1)CO2 (stereo not drawn)
-1.72

The following compounds each have a reported value; give each one's logD at 1 h.
1. O=C(O)c1ccccc1C(=O)Nc1ccc(S(=O)(=O)Nc2nccs2)cc1 [Phthalylsulfathiazole, reference compound]
2. O=C(Nc1ccccc1-c1ccc(Cl)cc1)c1cccnc1Cl [Boscalid, reference compound]
3. Cn1cc(C(=O)Nc2ccccc2-c2cc(F)c(F)c(F)c2)c(C(F)F)n1 [Fluxapyroxad, reference compound]
4. O=C(N[C@@H]1[C@@H]2CC[C@@]1(c1ccc(Cl)cc1)C2)c1cccnc1Cl (relative stereo)

Solution:
1: -1.05; 2: 3.46; 3: 3.48; 4: 2.5

###

- protocol_summary: Kinetic solubility in phosphate-buffered saline, pH 7.4
- Type: physicochemical
- test_context: phosphate-buffered saline, 25 °C, pH 7.4, aqueous buffer, kinetic from dmso stock, experimental kinetic solubility in phosphate-buffered saline at pH 7.4; Fig. 3; read-out: Solubility
result_type: solubility at 2 h (µM)
Numbers only, in µM.

Some solved cases for reference:
Cn1cc(C(=O)N[C@@H]2[C@@H]3CC[C@@]2(c2cc(F)c(F)c(F)c2)C3)c(C(F)F)n1 (relative stereo)
34
Cn1cc(C(=O)N[C@@H]2[C@H]3C[C@]2(c2cc(F)c(F)c(F)c2)CO3)c(C(F)F)n1 (relative stereo)
155
O=C(O)[C@@H]1[C@@H]2CC[C@@]1(C(=O)Nc1ccc(S(=O)(=O)Nc3nccs3)cc1)C2 (relative stereo)
101
O=C(O)C1C2CC1(C(=O)Nc1ccc(S(=O)(=O)Nc3nccs3)cc1)CO2 (stereo not drawn)
158
O=C(NC1CCN(CCCCC2(C(=O)NCC(F)(F)F)c3ccccc3-c3ccccc32)CC1)c1ccccc1-c1ccc(C(F)(F)F)cc1 [Lomitapide, reference compound]
3
O=C(O)c1ccccc1C(=O)Nc1ccc(S(=O)(=O)Nc2nccs2)cc1 [Phthalylsulfathiazole, reference compound]
170

The following molecules each have a reported value; give each one's solubility at 2 h.
1. O=C(N[C@@H]1[C@H]2C[C@]1(c1ccc(Cl)cc1)CO2)c1cccnc1Cl (relative stereo)
2. O=C(NC1CCN(CCCCC2(C(=O)NCC(F)(F)F)c3ccccc3-c3ccccc32)CC1)[C@@H]1[C@@H]2CC[C@@]1(c1ccc(C(F)(F)F)cc1)C2 (relative stereo)
3. O=C(N[C@@H]1[C@@H]2CC[C@@]1(c1ccc(Cl)cc1)C2)c1cccnc1Cl (relative stereo)

Solution:
152
2
17

###

- Tested on: Fusarium oxysporum
- protocol_summary: Antifungal activity, agar well diffusion method
- Assay type: cell-based
- test_context: Fusarium oxysporum; 0.25 mg/mL; zones st (static growth); read-out: Diameter of inhibition zone
result_type: zone of inhibition at 250 µg/mL (mm)
Answers are plain numbers, in mm.

The following compounds each have a reported value; give each one's zone of inhibition at 250 µg/mL.
1. Cn1cc(C(=O)N[C@@H]2[C@H]3C[C@]2(c2cc(F)c(F)c(F)c2)CO3)c(C(F)F)n1 (relative stereo) [Compound 29]
2. O=C(N[C@@H]1[C@H]2C[C@]1(c1ccc(Cl)cc1)CO2)c1cccnc1Cl (relative stereo) [Compound 31]

Solution:
1. 32
2. 18

The following compounds each have a reported value; give each one's zone of inhibition at 250 µg/mL.
1. O=C(N[C@@H]1[C@@H]2CC[C@@]1(c1ccc(Cl)cc1)C2)c1cccnc1Cl (relative stereo) [Compound 30]
2. Cn1cc(C(=O)N[C@@H]2[C@@H]3CC[C@@]2(c2cc(F)c(F)c(F)c2)C3)c(C(F)F)n1 (relative stereo) [Compound 28]

Solution:
30
38

###

- System: Fusarium oxysporum
- protocol_summary: Antifungal susceptibility testing (MIC, CLSI M38-A2 microdilution)
- Type: cell-based
- test_context: Table S6, lowest concentration giving 50% of optical density relative to control, 26 °C, 48 h
Task for the reader: assign each of the following molecules its reported MIC.
Numbers only, in µg/mL.

O=C(N[C@@H]1[C@H]2C[C@]1(c1ccc(Cl)cc1)CO2)c1cccnc1Cl (relative stereo)
250
O=C(Nc1ccccc1-c1ccc(Cl)cc1)c1cccnc1Cl [Boscalid, reference compound]
250
Cn1cc(C(=O)N[C@@H]2[C@@H]3CC[C@@]2(c2cc(F)c(F)c(F)c2)C3)c(C(F)F)n1 (relative stereo)
125

// next entry
Problem: Report MIC for O=C(N[C@@H]1[C@@H]2CC[C@@]1(c1ccc(Cl)cc1)C2)c1cccnc1Cl (relative stereo) please.
Solution: 31

###

- Test system: Fusarium verticillioides
- protocol_summary: Antifungal activity, agar well diffusion method
- Assay type: cell-based
- test_context: Fusarium verticillioides; 0.0039 mg/mL; 0 = absence of antifungal activity; read-out: Diameter of inhibition zone
Task for the reader: assign each of the following molecules its reported zone of inhibition at 3.9 µg/mL.
Give bare numbers, in mm.

Cn1cc(C(=O)N[C@@H]2[C@H]3C[C@]2(c2cc(F)c(F)c(F)c2)CO3)c(C(F)F)n1 (relative stereo) [Compound 29]
0
Cn1cc(C(=O)N[C@@H]2[C@@H]3CC[C@@]2(c2cc(F)c(F)c(F)c2)C3)c(C(F)F)n1 (relative stereo) [Compound 28]
35
O=C(N[C@@H]1[C@H]2C[C@]1(c1ccc(Cl)cc1)CO2)c1cccnc1Cl (relative stereo) [Compound 31]
0

Problem: Report zone of inhibition at 3.9 µg/mL for O=C(N[C@@H]1[C@@H]2CC[C@@]1(c1ccc(Cl)cc1)C2)c1cccnc1Cl (relative stereo) [Compound 30] please.
Solution: 11

###

Task for the reader: assign each of the following molecules its reported logD at 1 h.
- protocol_summary: physchem
- Type: physicochemical
- test_context: pH 7.4, LogD, pH 7.4, incubation 2

Some solved cases for reference:
O=C(NC1CCN(CCCCC2(C(=O)NCC(F)(F)F)c3ccccc3-c3ccccc32)CC1)[C@@H]1[C@H]2C[C@]1(c1ccc(C(F)(F)F)cc1)CO2 (relative stereo)
> 4.5
COC(=O)Nc1nc2ccc(C(=O)c3ccccc3)cc2[nH]1 [Mebendazole, reference compound]
3.12
O=C(NC1CCN(CCCCC2(C(=O)NCC(F)(F)F)c3ccccc3-c3ccccc32)CC1)c1ccccc1-c1ccc(C(F)(F)F)cc1 [Lomitapide, reference compound]
> 4.5
O=C(NC1CCN(CCCCC2(C(=O)NCC(F)(F)F)c3ccccc3-c3ccccc32)CC1)[C@@H]1[C@@H]2CC[C@@]1(c1ccc(C(F)(F)F)cc1)C2 (relative stereo)
> 4.5
O=C(O)[C@@H]1[C@@H]2CC[C@@]1(C(=O)Nc1ccc(S(=O)(=O)Nc3nccs3)cc1)C2 (relative stereo)
< 1

Problem: Report logD at 1 h for O=C(N[C@@H]1[C@H]2C[C@]1(c1ccc(Cl)cc1)CO2)c1cccnc1Cl (relative stereo) please.
Solution: 3.5

###

- System: Fusarium verticillioides
- protocol_summary: Antifungal activity, agar well diffusion method
- Type: cell-based
- test_context: Fusarium verticillioides; 0.25 mg/mL; 0 = absence of antifungal activity; read-out: Diameter of inhibition zone
result_type: zone of inhibition at 250 µg/mL (mm)
Give bare numbers, in mm.

Cn1cc(C(=O)N[C@@H]2[C@H]3C[C@]2(c2cc(F)c(F)c(F)c2)CO3)c(C(F)F)n1 (relative stereo)
39
Cn1cc(C(=O)N[C@@H]2[C@@H]3CC[C@@]2(c2cc(F)c(F)c(F)c2)C3)c(C(F)F)n1 (relative stereo)
51
O=C(N[C@@H]1[C@@H]2CC[C@@]1(c1ccc(Cl)cc1)C2)c1cccnc1Cl (relative stereo)
41

Problem: Report zone of inhibition at 250 µg/mL for O=C(N[C@@H]1[C@H]2C[C@]1(c1ccc(Cl)cc1)CO2)c1cccnc1Cl (relative stereo) please.
Solution: 16
